Data provenance is patent US20200223906A1.

target: RSV F protein of subtype A (strain A2) on recombinant mKate-RSV virus (Respiratory syncytial virus subtype A …, UniProt P03420 26-574); assay: cell-based or functional assay
EXPERIMENTAL READOUT: Neut IC50 (µg/ml) subtype A (µg/mL)
A number alone suffices; assume µg/mL.

Q) Data request, read-out Neut IC50 (µg/ml) subtype A, for ADI-18953 (antibody, V domains shown, full-length IgG from yeast) VH: QVQLVQSGAEVKKPGSSVKVSCKASGGTFSGYAINWVRQAPGQGLEWMGGIIHIFGTVNYAPKFQGRLTITADASTGTAYMELSSLMSEDTALYYCARDAYEVWTGSYLPPFDYWGQGTLVTVSS VL: ETTLTQSPGTLSLSPGERVTLSCRASQTVTSNYLAWYQQKPGQAPRLLIYDAFTRATGVPARFSGSGSGTDFTLTISRLEPEDFAVYYCQQYGSSFLTFGGGTKVEIK
A) 0.034

Q) Data request, read-out Neut IC50 (µg/ml) subtype A, for ADI-18974 (antibody, V domains shown, full-length IgG from yeast) VH: QVQLVQSGPEVKKPGASVRVSCEASGYPFSNYGITWVRQAPGQGLEWMGWISAYNGNRDYLQKFQGRLTMTIDTSTRTAHMELRRLTSDDTAVYWCARDTPATAAPLLDYWGQGTLVTVSS VL: DIVMTQSPLSLAVTLGQPASISCRSSQSLEFTDGNTYLNWFQQRPGQSPRRLIYKVSNRDSGVPDRFSGSGSGTGFTLKISRVEAEDVGVYYCMQGIFRPGTFGQGTKVEIK
A) 0.03
